# MEASURED TARGET: recombinant human Bcl-2 protein (Homo sapiens)
# Sequence (P10415 whole entry): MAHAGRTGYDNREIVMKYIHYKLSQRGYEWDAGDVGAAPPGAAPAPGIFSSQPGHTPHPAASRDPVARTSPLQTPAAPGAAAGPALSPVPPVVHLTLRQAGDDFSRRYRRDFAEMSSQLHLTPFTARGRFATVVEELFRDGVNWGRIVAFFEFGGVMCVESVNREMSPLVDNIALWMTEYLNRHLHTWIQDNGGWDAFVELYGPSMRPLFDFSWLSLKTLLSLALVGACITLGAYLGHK
# TEST NAME: Surface plasmon resonance (SPR) binding assay
# EXPERIMENTAL SETUP: compound immobilized on chip, Bcl-2 protein 700 nM, read-out: KD, dissociation equilibrium constant
Rule for this label: MET means Kd is less than 600 nM; NOT MET means Kd is at least 600 nM.

>>> answer_label("Cc1ccc(S(=O)(=O)N(Cc2ccc(Cl)cc2)c2ccccc2C(=O)Nc2ccccc2C(=O)NC(C)c2ccccc2)cc1 (centres unmarked)")
"MET"
>>> answer_label("CCN(CC)c1ccc(N2C(C(C)=O)=NN(c3ccc(Cl)cc3)C2c2ccccc2OCc2ccc(Cl)cc2Cl)cc1 (centres unmarked)")
"NOT MET"
>>> answer_label("COc1ccc(/C=c2/sc3n(c2=O)C(c2ccc(Cl)cc2)C(C(=O)Nc2ccccc2)=C(C)N=3)cc1COc1ccc(F)cc1F (centres unmarked)")
"MET"
>>> answer_label("Cc1ccc(S(=O)(=O)N(Cc2ccc(Cl)cc2)c2ccccc2C(=O)Nc2ccc(S(=O)(=O)Nc3ccc(F)cc3)cc2)cc1")
"MET"
>>> answer_label("COc1cc(-c2cc(-c3ccccc3)nc(SCC(=O)Nc3cc(Cl)ccc3C)c2C#N)ccc1OCc1ccccc1")
"NOT MET"
>>> answer_label("Cc1cc(C(=O)C2=C(O)C(=O)N(CCCN3CCOCC3)C2c2cccc(Oc3ccccc3)c2)ccc1OCc1ccccc1 (centres unmarked)")
"NOT MET"
>>> answer_label("CCOc1cccc(C2N(c3ccccc3)N=C(C(C)=O)N2c2ccc(N3CCOCC3)c(Cl)c2)c1OCc1ccc(Cl)cc1Cl (centres unmarked)")
"NOT MET"
>>> answer_label("COc1cc(N2C(C(C)=O)=NN(c3ccc(C)cc3)C2c2ccccc2OCc2ccccc2F)ccc1NC(=O)C(C)C (centres unmarked)")
"MET"

Data origin, for the record: paper PMC6478794
